target: mixture of three Der p 2 specific recombinant human IgE clones H10, H12, P4E (human) (UniProt P01854); assay: RBL-SX38 IgE displacement, FACS
Sequence (P01854 other isoform, or with tags, fused parts or gaps): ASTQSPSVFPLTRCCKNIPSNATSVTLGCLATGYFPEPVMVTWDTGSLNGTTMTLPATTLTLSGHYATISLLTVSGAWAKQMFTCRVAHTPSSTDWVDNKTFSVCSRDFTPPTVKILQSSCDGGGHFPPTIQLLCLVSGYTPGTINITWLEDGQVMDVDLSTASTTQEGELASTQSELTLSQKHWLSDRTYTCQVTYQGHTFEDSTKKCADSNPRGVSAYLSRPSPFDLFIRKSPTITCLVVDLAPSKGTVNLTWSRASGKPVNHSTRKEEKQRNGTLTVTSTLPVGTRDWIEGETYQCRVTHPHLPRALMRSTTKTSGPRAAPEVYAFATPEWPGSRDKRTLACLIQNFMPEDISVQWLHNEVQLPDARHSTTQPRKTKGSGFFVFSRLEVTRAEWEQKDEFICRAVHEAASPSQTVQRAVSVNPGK
Hi there, I'd appreciate the recorded pEC50 for every entry that follows.
On this scale, pEC50 is minus log10 of a concentration expressed in M (mol/L).

The recorded pEC50 for entry B1A1(G4S)4 (bispecific antibody) QVQLQESGGGLVQTGGSLRLSCAVHGRTFSNTGMGWFRQAPGNERQFVAIISPSGTSTYYADSVKGRFTISRDPAKNTVYLQMNSLKMDDTAVYYCAASYGSNWSTLRHQRRNEYDAWGQGTQVAVSGGGGSGGGGSGGGGSGGGGSEVQLLESGGGLVQPGGSLRLSCAASGFTFGNYDMAWVRQAPGKRPEWVSSIDTGGDITHYADSVKGRFTISRDNAKNTLYLQMNSLRPEDTAVYWCATDEEYALGPNEFDYYGQGTLVTVS equals 8.85

Record B2A1(G4S)4 (bispecific antibody) QVQLVESGGGLVQAGGSLRLSCAVFGSTFSNNVADWYRQAPGKQRELVARISASGATREYGDSVKGRFTISRDDAKNTMYLQMNNLKPEDTAVYRCHKIEWEDLSRKDYWGQGTQVTVSGGGGSGGGGSGGGGSGGGGSEVQLLESGGGLVQPGGSLRLSCAASGFTFGNYDMAWVRQAPGKRPEWVSSIDTGGDITHYADSVKGRFTISRDNAKNTLYLQMNSLRPEDTAVYWCATDEEYALGPNEFDYYGQGTLVTVS . Reported pEC50: 8.24

pEC50 for A1B2(G4S)4 (bispecific antibody) EVQLLESGGGLVQPGGSLRLSCAASGFTFGNYDMAWVRQAPGKRPEWVSSIDTGGDITHYADSVKGRFTISRDNAKNTLYLQMNSLRPEDTAVYWCATDEEYALGPNEFDYYGQGTLVTVSGGGGSGGGGSGGGGSGGGGSQVQLVESGGGLVQAGGSLRLSCAVFGSTFSNNVADWYRQAPGKQRELVARISASGATREYGDSVKGRFTISRDDAKNTMYLQMNNLKPEDTAVYRCHKIEWEDLSRKDYWGQGTQVTVS is 9.10

Documented pEC50 of A1D2(G4S)4 (bispecific antibody) EVQLLESGGGLVQPGGSLRLSCAASGFTFGNYDMAWVRQAPGKRPEWVSSIDTGGDITHYADSVKGRFTISRDNAKNTLYLQMNSLRPEDTAVYWCATDEEYALGPNEFDYYGQGTLVTVSGGGGSGGGGSGGGGSGGGGSDVQLQESGGGLVEAGGSLRLSCVASGRTFSGWSMGWFRQAPGKEREFVAAISWVGSWIGGTVYSNSVKGRFTISRDNARTTVYLQMNSLKPEDTAVYFCAAANSETPRIFASEYDYWGQGTQVTVS : 8.37

Reference source for all entries: patent US20250171562A1
